Experiment: Static bioassay, lethal concentration to coho salmon
Type: in vivo, Oncorhynchus kisutch
Conditions: coho salmon, water; 10 C; 192 h
OBSERVATION_TYPE: LC50 at 192 h (µg/mL)
Just the number please, in µg/mL, no unit attached.

Suppose we examine the compound CCOP(=O)(OCC)OC(Cl)C(Cl)(Cl)Cl (stereo not shown) ; what LC50 at 192 h value has been reported? 0.015

* * *

Reported LC50 at 48 h values for the following compounds.
Assay: Static bioassay, lethal concentration to cutthroat trout
Type: in vivo, S. clarki
Conditions: cutthroat trout, water, 15 C; 48 h
Dear colleague, please return just the value in µg/mL, with no unit written.

Suppose we examine the compound CCOP(=O)(OCC)OC(Cl)C(Cl)(Cl)Cl (centres unmarked) ; what LC50 at 48 h value has been reported? 0.022

Next up:
Find the recorded LC50 at 48 h belonging to CCOP(=O)(OC=C(Cl)Cl)OCC [2,2-dichlorovinyl diethyl phosphate] and report it. 5.3
